Test system: K4 kissing-loop RNA reporter;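 also: bound reporter read as fluorescence of individual clusters on recovered sequencing chips by microscopy, with normalized cluster intensities fitted with a binding model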
Assay: apparent KD of K4 kissing-loop reporter; higher = weaker reporter binding
Settings: Eterna round: R107; input ligand: FMN 200 uM
test-readout: apparent KD of K4 kissing-loop reporter (µM)
The response must be a number in µM with no trailing unit.

Illustrative cases are given below, each with its answer.
[[record]]
item_sequence = "UGUCAUUGGUCGGCCGCCACUCCAUAAUGAGUGAUGUUCUAAAAGACGGAUCGAAAGAUCUGUCGGAGGACCGGGACCGAUGACU [FiskerMod 5 - Jieux - Same State - Tryptophan B]"
test_readout = "apparent KD of K4 kissing-loop reporter"
value_measured = 0.566

[[record]]
item_sequence = "UGUACCGAGUCAGGAUAUCAUAAUAAUGCAGUGAUGUUGCAAUAACGACUGACAAAGUCGGUCGAUUGAGAAGGGACUUGGUACU [FmnBS 6 #SwitchBubble #StaticStem]"
test_readout = "apparent KD of K4 kissing-loop reporter"
value_measured = 0.127

[[record]]
item_sequence = "GGAGCUACCUGGGAUACCAGUCGGAGUCUCAGAGCUCGGAGUGAUGUUCUGGGAUGUUUCGGCCCUUGGCAGCUCUGGGACUCCU [#2 Exclusion - Theophylline B Attempt #18 (HarryS)]"
test_readout = "apparent KD of K4 kissing-loop reporter"
value_measured = 0.872


I am curious: what apparent KD of K4 kissing-loop reporter value has been reported for AGUGAUAUAUGAGGAUAUGGGUUAAUUAGUGAGUUAUUUUUAGUGUUGUUUGAUUAGUGAUGUUAUUUAGAAGGCGUGAGUGAUG [awwswmjmullin] ? 0.113

Tell me the measured apparent KD of K4 kissing-loop reporter of CUAGGCAACACAGGAUAUGUCCGAGUGAUGUUCGAGCCUUUCCAUUGACGAAAUUAAUGGUGGGUGACAGAAGGGUGAGUGCUGA [Xezaqu] , please. 0.354

Quick check: apparent KD of K4 kissing-loop reporter of GGACGACAGGCGGCCGCCACUCAAAGCAGCCAGCGAGUGAUGUUCGUGGCGGAGUGAUGUUCCUAGAGGACCGGGUCUGCAGUUC [Same State Tryptophan B GF 18] ? 0.449

Requested read-out: apparent KD of K4 kissing-loop reporter. Entry: AGUGAUGUUUCUUUUAAGAGUGAUGUUUUUCGAGGACCGGUACGGCCGCCACUCGAGUGAUGAGUGCGUCGUUGUGGUGAUUAGU [#13 K4 Tryptophan A Exclusion] 0.483

Using the record for ACUGGGUUGACGAAAGUCAACAAAAGAGAAGGAGCGCACGAAAGUGCAGGUAGGUCGCUCAUCCAGUGAUGUUGGAUCAUCCAGA [#SwitchBubble 17 #K4Late] , report its apparent KD of K4 kissing-loop reporter. 0.444

Consider the sequence shown here: GUAUCGCUAGGAGGAUAUUCCGUUUUUCAUAGCAAUGGCUAUGCGGAGUGAUGUUCCGAUUUACCGGAAGAAGGCCUAGUGAUAC [FMN B 24] What is its recorded apparent KD of K4 kissing-loop reporter? 0.108

I have this sequence here, ACGUAGUUCUAGGAUACCAGCCAAGAUGCCAGGACAAAAGUCCUGGCAGCCAGUGAUGUUGGCCCUUGGCAGCCUAGAACUACGA [Omei KL Theo B Exc B v9] , and I need its recorded apparent KD of K4 kissing-loop reporter. 0.149

GET /values?readout=apparent KD of K4 kissing-loop reporter&item= AGUGUUAGGUUAGAUACCAGCCGUCCGUGGAUAACCCUCGGACCGCCAGUGAUGUUGGCAGGCCCUUGGCAGCUAACAGAACAGA [Beriisa] 0.263

Need apparent KD of K4 kissing-loop reporter, item UGUCGAGUGAUGUUCGAUGUGGUGCAUGCAGAGGAUAUAGGGUGGGCUAGAAGGCUGAAAAGUGCUUCGAGUGAUGUUCGAAGAU [Exclusion FMN A GF9] 0.129

Requested field: apparent KD of K4 kissing-loop reporter. Item: GCCAGUGAUGUUGGCGAACCAACGCAUGCAGAGGAUAUUCGUUCGGGAAGAAGGCUGCAGCGUUCUCUCCCGCAGUGAUGUUGCG [Same State FMN A GF 25] 0.164
